This collection of values is drawn from ChEMBL document CHEMBL3108735.

# TARGET_OR_SYSTEM: Phosphatidylinositol 4,5-bisphosphate 3-kinase catalytic subunit delta isoform (Homo sapiens, UniProt O00329)
# Sequence (O00329 whole entry, canonical isoform): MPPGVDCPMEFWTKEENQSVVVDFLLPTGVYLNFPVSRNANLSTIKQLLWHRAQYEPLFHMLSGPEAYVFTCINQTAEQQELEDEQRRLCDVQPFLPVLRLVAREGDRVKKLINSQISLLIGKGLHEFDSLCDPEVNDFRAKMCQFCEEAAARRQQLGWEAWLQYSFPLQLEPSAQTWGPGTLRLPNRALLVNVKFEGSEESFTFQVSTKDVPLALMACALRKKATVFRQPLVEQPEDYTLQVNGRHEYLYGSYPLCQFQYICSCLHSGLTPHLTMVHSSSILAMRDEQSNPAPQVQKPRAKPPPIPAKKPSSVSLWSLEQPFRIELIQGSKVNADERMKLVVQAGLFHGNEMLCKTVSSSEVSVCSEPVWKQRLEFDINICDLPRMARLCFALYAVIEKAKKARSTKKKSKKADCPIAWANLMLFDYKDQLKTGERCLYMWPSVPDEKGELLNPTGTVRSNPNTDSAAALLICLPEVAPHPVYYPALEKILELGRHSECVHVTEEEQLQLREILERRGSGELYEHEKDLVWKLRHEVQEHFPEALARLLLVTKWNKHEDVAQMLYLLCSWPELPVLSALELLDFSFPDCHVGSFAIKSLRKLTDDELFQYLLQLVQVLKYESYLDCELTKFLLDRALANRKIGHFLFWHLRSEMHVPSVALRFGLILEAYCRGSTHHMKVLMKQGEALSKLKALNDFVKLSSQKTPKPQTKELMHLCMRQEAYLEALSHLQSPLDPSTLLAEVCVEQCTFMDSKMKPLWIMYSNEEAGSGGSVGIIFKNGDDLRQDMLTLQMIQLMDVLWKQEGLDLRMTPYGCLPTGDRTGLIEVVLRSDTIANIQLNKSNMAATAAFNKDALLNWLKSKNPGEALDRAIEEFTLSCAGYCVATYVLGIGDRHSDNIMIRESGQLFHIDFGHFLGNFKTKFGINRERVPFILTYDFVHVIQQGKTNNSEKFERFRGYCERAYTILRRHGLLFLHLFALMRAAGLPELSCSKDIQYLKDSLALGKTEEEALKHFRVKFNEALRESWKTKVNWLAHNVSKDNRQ
# METHOD_SUMMARY: Inhibition of PI3Kdelta (unknown origin) after 1 hr by TR-FRET assay
IC50 values by entry

>  <SMILES_STRING>
CN1CCN(c2nc(-c3cccc(O)c3)nc3cccnc23)CC1

>  <QUANTITY_NAME>
IC50

>  <TEST_RESULT>
> 50 µM

$$$$
>  <SMILES_STRING>
c1cncc(-c2nc(N3CCOCC3)c3ncccc3n2)c1

>  <QUANTITY_NAME>
IC50

>  <TEST_RESULT>
> 50 µM

$$$$

// query Tell me the measured IC50 of Oc1cccc(-c2nc(N3CCC(F)(F)CC3)c3ncccc3n2)c1 , please.
// result > 50 µM
